Molecular target: c-KIT (Homo sapiens, UniProt P10721)
Construct: M-07e cells (human acute megakaryoblastic leukemia cell line) were serum-starved for 4 hours; endogenous in cells
Sequence (P10721 26-976): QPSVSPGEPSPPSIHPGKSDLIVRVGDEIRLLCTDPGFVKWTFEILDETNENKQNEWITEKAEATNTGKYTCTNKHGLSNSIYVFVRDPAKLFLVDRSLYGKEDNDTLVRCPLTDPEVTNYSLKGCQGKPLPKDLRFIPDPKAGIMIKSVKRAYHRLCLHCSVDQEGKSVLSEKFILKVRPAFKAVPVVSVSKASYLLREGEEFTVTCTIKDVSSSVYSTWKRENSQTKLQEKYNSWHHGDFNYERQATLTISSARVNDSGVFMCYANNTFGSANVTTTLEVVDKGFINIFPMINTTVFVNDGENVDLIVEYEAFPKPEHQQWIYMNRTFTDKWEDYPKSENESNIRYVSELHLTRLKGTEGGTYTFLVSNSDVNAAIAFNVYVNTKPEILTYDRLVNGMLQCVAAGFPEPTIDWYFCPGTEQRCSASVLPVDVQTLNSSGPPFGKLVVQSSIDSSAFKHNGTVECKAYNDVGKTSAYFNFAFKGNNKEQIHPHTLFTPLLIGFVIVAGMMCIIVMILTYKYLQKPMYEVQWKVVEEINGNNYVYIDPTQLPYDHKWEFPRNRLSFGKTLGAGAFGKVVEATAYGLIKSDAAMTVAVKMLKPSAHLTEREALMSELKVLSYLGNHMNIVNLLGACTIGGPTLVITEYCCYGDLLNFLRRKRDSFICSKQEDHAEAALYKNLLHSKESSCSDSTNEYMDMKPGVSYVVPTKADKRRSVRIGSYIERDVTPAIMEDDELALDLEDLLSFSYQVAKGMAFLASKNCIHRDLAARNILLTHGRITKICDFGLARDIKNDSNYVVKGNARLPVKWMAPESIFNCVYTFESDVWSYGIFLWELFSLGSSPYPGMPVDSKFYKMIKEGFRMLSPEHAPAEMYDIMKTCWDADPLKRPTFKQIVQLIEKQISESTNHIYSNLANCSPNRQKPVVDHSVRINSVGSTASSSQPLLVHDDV
Test: c-KIT Cell-Based Assay (Example D)
Conditions: averaged IC50; phospho-c-KIT in M-07e cells stimulated with 150 ng/ml recombinant human SCF; read-out: cKIT Cell ELISA IC50
Where a name gives a salt, the structure may show the parent alone.
Doc: threshold 40 nM (exclusive). Items with IC50 beneath it return met; others return not met.

> print(dat)
                                   compound  assigned.label
1  CCN1CCN(CCOc2ccn3c(C(=O)Nc4cccc5c4c(C)nn5Cc4cccc(C5CC5)n4)cnc3c2)CC1 [Example 17]         not met

## Input Hello, is IC50 of the following compound strictly smaller than 40 nM? COCCOc1ccn2c(C(=O)Nc3cccc4c3cnn4Cc3cccc(C)n3)cnc2c1 [Example 142]
## Output met

## Input Bench note: check whether COCCOc1ccn2c(C(=O)Nc3cccc4c3cnn4Cc3ccc(C(F)(F)F)cc3)cnc2c1 [Example 120] shows IC50 below 40 nM
## Output met

## Input Does the reported IC50 of the following compound sit strictly below 40 nM? O=C(Nc1cccc2c1cnn2Cc1ccccc1)c1cnc2ccc(Br)cn12 [Example 155]
## Output not met

## Input Please determine if Cc1nn(Cc2cccc(C(C)C)n2)c2cccc(NC(=O)c3cnc4cc(OCCN5CC6(CNC6)C5)ccn34)c12 [Example 3, trihydrochloride] is below 40 nM in terms of IC50.
## Output not met

## Input API: query returns whether the compound falls strictly under 40 nM in IC50. Query: Cc1nn(Cc2cccc(C(C)C)n2)c2cccc(NC(=O)c3cnc4cc(OCCN5CCN(C)[C@H](C)C5)ccn34)c12 [Example 28]
## Output met

## Input Is the reported IC50 for Cc1ccc(Cn2nc(C)c3c(NC(=O)c4cnc5ccccn45)cccc32)cn1 [Example 81] strictly below 40 nM?
## Output not met

###

Biological target: cFMS (Homo sapiens, UniProt P07333)
Construct: THP-1 cells (human acute monocytic leukemia cell line) were serum-starved for 4 hours; endogenous in cells
Sequence (P07333 20-972): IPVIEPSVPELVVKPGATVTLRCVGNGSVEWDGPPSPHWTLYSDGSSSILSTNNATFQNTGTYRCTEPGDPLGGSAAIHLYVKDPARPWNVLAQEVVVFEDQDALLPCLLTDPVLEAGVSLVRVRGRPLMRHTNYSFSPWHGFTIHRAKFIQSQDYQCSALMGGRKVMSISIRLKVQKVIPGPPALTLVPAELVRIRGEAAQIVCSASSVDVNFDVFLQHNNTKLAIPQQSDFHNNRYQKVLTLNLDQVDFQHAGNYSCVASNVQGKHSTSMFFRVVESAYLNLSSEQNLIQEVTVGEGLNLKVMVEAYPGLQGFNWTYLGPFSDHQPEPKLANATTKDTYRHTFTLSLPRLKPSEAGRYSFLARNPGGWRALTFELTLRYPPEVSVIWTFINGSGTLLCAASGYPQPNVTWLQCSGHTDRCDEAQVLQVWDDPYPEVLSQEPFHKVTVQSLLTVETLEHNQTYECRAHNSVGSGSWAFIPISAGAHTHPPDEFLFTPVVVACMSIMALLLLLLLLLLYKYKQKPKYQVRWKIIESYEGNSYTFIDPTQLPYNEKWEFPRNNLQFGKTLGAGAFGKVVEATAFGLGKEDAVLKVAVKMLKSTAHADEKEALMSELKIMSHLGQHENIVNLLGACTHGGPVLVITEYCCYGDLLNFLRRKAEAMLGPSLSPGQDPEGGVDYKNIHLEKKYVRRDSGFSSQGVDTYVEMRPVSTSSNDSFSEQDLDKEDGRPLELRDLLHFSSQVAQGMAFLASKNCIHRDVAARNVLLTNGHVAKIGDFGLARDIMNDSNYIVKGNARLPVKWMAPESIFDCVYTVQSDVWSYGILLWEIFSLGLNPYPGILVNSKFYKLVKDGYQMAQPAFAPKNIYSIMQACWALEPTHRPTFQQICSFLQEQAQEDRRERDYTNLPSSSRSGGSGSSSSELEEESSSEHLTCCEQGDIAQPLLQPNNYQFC
Assay: cFMS Cell-Based Assay (Example C)
Settings: averaged IC50; phospho-cFMS in THP-1 cells stimulated with 250 ng/mL recombinant human MCSF; read-out: cFMS Cell ELISA IC50
Counter-ions that a name gives are not always drawn.
reported_metric: IC50 (nM)
Numbers only, in nM.

Worked cases, answers included:
> print(dat)
                                   compound  reported.metric  obs.value
1  Cc1cccc(Cn2nc(C)c3c(NC(=O)c4cnc5cc(CCN6CCN(C)CC6)ccn45)cccc32)n1             IC50       17.3
2  Cc1cccc(Cn2nc(C)c3c(NC(=O)c4cnc5cc(-c6ccc(=O)n(C)c6)ccn45)cccc32)n1             IC50        8.5
3  Cc1cccc(Cn2nc(C)c3c(NC(=O)c4cnc5cc(OCCO)ccn45)cccc32)n1 [Example 57, di-hydrochloride salt]             IC50       40.2
4  Cc1cccc(Cn2nc(C)c3c(NC(=O)c4cnc5cc(OCCN(C)C)ccn45)cccc32)n1             IC50       35.6
5  Cc1ccc(Cn2nc(C)c3c(NC(=O)c4cnc5cc(OCCN6CCN(C)CC6)ccn45)cccc32)cn1             IC50       10.4
6  Cc1nn(Cc2csc(C(C)C)n2)c2cccc(NC(=O)c3cnc4cc(OCCN5CCN(C)CC5)ccn34)c12             IC50       11.4
7  COCCOc1ccn2c(C(=O)Nc3cccc4c3cnn4Cc3ccc(C)nc3)cnc2c1             IC50        8.3

Consider the record given below.
## Input Look up IC50: CC(c1ccn2c(C(=O)Nc3cccc4c3cnn4Cc3ccccc3)cnc2c1)N1CCOCC1 (centres unmarked)
## Output 93.1

###

Please respond with reported IC50 for every item in the list.
Molecular target: PDGFR beta (Homo sapiens, UniProt P09619)
Construct: endogenous in cells; host or cells: HS27 human fibroblast cell line
Sequence (P09619 33-1106): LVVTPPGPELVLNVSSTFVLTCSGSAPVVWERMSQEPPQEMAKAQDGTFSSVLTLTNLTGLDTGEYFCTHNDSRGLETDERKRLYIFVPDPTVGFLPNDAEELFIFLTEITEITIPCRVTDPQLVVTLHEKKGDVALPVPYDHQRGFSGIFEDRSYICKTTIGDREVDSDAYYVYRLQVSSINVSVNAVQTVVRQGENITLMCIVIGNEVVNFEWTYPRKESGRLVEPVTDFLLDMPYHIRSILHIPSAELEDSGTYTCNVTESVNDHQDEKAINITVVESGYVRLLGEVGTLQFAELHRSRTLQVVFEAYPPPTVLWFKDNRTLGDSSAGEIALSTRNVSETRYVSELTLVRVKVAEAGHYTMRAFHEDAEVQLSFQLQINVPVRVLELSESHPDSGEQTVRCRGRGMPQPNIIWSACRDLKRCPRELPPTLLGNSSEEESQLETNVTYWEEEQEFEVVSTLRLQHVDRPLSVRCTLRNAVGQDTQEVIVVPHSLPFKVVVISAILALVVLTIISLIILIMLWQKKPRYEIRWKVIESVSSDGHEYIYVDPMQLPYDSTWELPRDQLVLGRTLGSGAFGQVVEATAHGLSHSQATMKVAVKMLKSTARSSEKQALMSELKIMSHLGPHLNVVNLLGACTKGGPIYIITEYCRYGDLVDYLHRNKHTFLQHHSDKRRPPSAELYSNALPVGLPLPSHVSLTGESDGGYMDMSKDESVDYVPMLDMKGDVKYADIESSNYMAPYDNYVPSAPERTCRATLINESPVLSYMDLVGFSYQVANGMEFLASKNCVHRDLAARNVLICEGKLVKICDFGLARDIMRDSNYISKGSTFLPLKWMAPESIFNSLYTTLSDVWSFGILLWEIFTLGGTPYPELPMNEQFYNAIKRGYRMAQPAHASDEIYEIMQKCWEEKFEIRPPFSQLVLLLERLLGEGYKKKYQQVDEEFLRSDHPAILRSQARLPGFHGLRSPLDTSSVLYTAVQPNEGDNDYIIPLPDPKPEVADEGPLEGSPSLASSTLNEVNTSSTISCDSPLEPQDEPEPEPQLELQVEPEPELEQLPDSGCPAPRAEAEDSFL
Experiment: Phospho PDGFR Cell Assay, sandwich ELISA (Example A)
Type: cell-based
Details: averaged IC50, PDGFR beta phosphorylation in HS27 human fibroblast cell line, PDGF-BB stimulation 5 minutes
Give bare numbers, in nM.

// below: answered molecules
> print(dat)
                                   molecule                             tested.target  reported.metric  obs.value
1  Cc1nn(Cc2csc(C(C)C)n2)c2cccc(NC(=O)c3cnc4cc(OCCN5CC6(COC6)C5)ccn34)c12 [Example 14]  PDGFR beta (Homo sapiens, UniProt P09619)             IC50       37.7
2  Cc1nn(Cc2ccc(F)c(C(C)C)n2)c2cccc(NC(=O)c3cnc4cc(OCCN5CCN(C)[C@@H](C)C5)ccn34)c12 [Example 41]  PDGFR beta (Homo sapiens, UniProt P09619)             IC50       19.6

Could you now look at the following molecule, please?
## Input API: value(readout=IC50, system=PDGFR beta (Homo sapiens, UniProt P09619)) for record Cc1cccc(Cn2nc(C)c3c(NC(=O)c4cnc5cc(-c6cn[nH]c6)ccn45)cccc32)n1 [Example 70]
## Output 99.2

###

Molecular target: c-KIT (Homo sapiens)
Construct: M-07e cells (human acute megakaryoblastic leukemia cell line) were serum-starved for 4 hours; endogenous in cells
Test: c-KIT Cell-Based Assay (Example D)
Conditions: averaged IC50; phospho-c-KIT in M-07e cells stimulated with 150 ng/ml recombinant human SCF; read-out: cKIT Cell ELISA IC50
Decide using IC50 alone. Strictly below 200 nM: yes (1). Equal to or above 200 nM: no (0).

Example entries begin here.
> print(dat)
                                   compound  assigned.label
1  NC(=O)c1ccc2ncc(C(=O)Nc3cccc4c3cnn4Cc3ccccc3)n2c1 [Example 160]          no (0)
2  Cc1nn(Cc2cc(C)n(C(C)C)n2)c2cccc(NC(=O)c3cnc4cc(OCCN5CCCN(C)CC5)ccn34)c12 [Example 11]         yes (1)

## Input Take the compound COCCOc1ccn2c(C(=O)Nc3cccc4c3cnn4Cc3ccccc3)cnc2c1 [Example 156] and say whether its IC50 is less than 200 nM.
## Output yes (1)

## Input Consider COCCOc1ccn2c(C(=O)Nc3cccc4c3cnn4Cc3cccc(C)c3)cnc2c1 [Example 143] . Does its IC50 lie strictly below 200 nM?
## Output yes (1)

## Input Please check: IC50 for COc1ccn2c(C(=O)Nc3cccc4c3cnn4Cc3ccccc3)cnc2c1 [Example 125] , strictly under 200 nM or not?
## Output yes (1)

## Input Please indicate whether the reported IC50 of Cc1nn(Cc2cc(C)n(C(C)C)n2)c2cccc(NC(=O)c3cnc4cc(OCCN5CCN(C)[C@@H](C)C5)ccn34)c12 [Example 29] is strictly below 200 nM.
## Output yes (1)

## Input Please let me know if CC(C)c1cccc(Cn2ncc3c(NC(=O)c4cnc5cc(OCCN6CCN(C)CC6)ccn45)cccc32)n1 [Example 138] shows IC50 below 200 nM.
## Output yes (1)

###

Target: cFMS (Homo sapiens)
Construct: THP-1 cells (human acute monocytic leukemia cell line) were serum-starved for 4 hours; endogenous in cells
Assay: cFMS Cell-Based Assay (Example C)
Settings: averaged IC50; phospho-cFMS in THP-1 cells stimulated with 250 ng/mL recombinant human MCSF; read-out: cFMS Cell ELISA IC50
Description: The ability of compounds of Formula I to inhibit cFMS activation in cells was determined by the following assay. […] Cells were lysed in a manner which preserves phosphoproteins, and the lysate was analyzed by ELISA (R&D Systems, Human Phospho-M-CSF R DuoSet IC DYC3268), in which total cFMS protein in the lysate is captured and phosphotyrosine residues of cFMS are detected. A standard curve, made using purified phospho-M-CSF R protein, was used to quantify phospho-c-FMS in compound-treated wells. […]
Where a name gives a salt, the structure may show the parent alone.
Exercise: state measured IC50 for each of the compounds provided.
Give bare numbers, in nM.

Solved cases below.
> print(dat)
                                   compound        tested.target  obs.value
1  COCCOc1ccn2c(C(=O)Nc3cccc4c3cnn4Cc3ccncc3)cnc2c1  cFMS (Homo sapiens)        150
2  Cc1cccc(Cn2nc(C)c3c(NC(=O)c4cnc5cc(OCCN6CCN(C)CC6)ccn45)cccc32)n1  cFMS (Homo sapiens)        7.3
3  N#Cc1ccn2c(C(=O)Nc3cccc4c3cnn4Cc3ccccc3)cnc2c1  cFMS (Homo sapiens)        117
4  CN1CCN(CCOc2ccn3c(C(=O)Nc4cccc5c4cnn5Cc4ccccc4)cnc3c2)CC1  cFMS (Homo sapiens)       14.8
5  Cc1nn(Cc2cccc(C(C)C)n2)c2cccc(NC(=O)c3cnc4cc(OCCN5CCN(C)[C@H](C)C5)ccn34)c12  cFMS (Homo sapiens)         14

Provide reported IC50 for each item, in the same order as listed.
1. Cc1nn(Cc2cccc(C(C)C)n2)c2cccc(NC(=O)c3cnc4cc(OCCN5CCN[C@@H](C)C5)ccn34)c12
2. CN1CCN(CCOc2ccn3c(C(=O)Nc4cccc5c4cnn5CCc4ccccn4)cnc3c2)CC1
3. Cc1nn(Cc2cccc(C(C)C)n2)c2cccc(NC(=O)c3cnc4cc(OCCN5CC6(CN(C)C6)C5)ccn34)c12
4. COC(=O)c1cccc(Cn2ncc3c(NC(=O)c4cnc5cc(OCCN6CCN(C)CC6)ccn45)cccc32)c1 [Example 96, dihydrochloride]
5. Cc1cc(Cn2ncc3c(NC(=O)c4cnc5cc(OCCN6CCN(C)CC6)ccn45)cccc32)nn1C(C)C
6. CCOc1ccn2c(C(=O)Nc3cccc4c3cnn4Cc3ccccc3)cnc2c1
7. Cc1nn(Cc2cccc(C3CC3)n2)c2cccc(NC(=O)c3cnc4cc(OCCN5CCN(C)[C@@H](C)C5)ccn34)c12 [Example 26, dihydrochloride]

## Output
1. 22.4
2. 44.8
3. 29.4
4. 115
5. 10.6
6. 14.9
7. 13.7
